test: chemical genetic growth profiling, strain panel (AID 1159580);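 further: tested at 20 µM; growth read once vehicle control cultures reached saturation at 30 °C; 1 = growth at the plate median or of vehicle wells; lower values mean less growth of the strain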; settings: S. cerevisiae deletion strains, growth OD, locus YER155C, strain BEM2
The campaign covered roughly 5,500 compounds. About 2,000 (36%) were called active. Not shown: some 18% with an inconclusive outcome. No stated cut-off is given here; in the data, active means normalized growth mostly below about 0.91 (no sharp cut-off); inconclusive means no clear call, values can overlap the other calls; inactive means mostly above about 0.92. The list shows a part of the results.
Your reply should match one of these outcome classes. Yes for active, No for inactive

[ask] Hey, what did the test say about CO[C@H]1C[C@H](O[C@H]2[C@H](C)[C@@H](OC3O[C@H](C)C[C@H](N(C)C)[C@H]3O)[C@@H](C)C[C@]3(CO3)C(=O)[C@H](C)[C@@H](O)[C@@H](C)[C@@H](C)OC(=O)[C@@H]2C)O[C@@H](C)[C@@H]1O (stereo partly drawn) ?
[reply] No

[ask] Hey, what did the test say about O=[N+]([O-])O[C@H]1CO[C@H]2[C@@H]1OC[C@H]2O[N+](=O)[O-] ?
[reply] No

---

test: chemical genetic growth profiling, strain panel (AID 1159580); details: S. cerevisiae deletion strains, growth OD, locus YLR085C, strain ARP6
Among all 5,500 compounds or so, about 2,000 (36%) were called active. Roughly 18% stayed inconclusive and do not appear here. Cut-off read from the data, not from the text of the source: active = normalized growth mostly below about 0.91 (no sharp cut-off); inconclusive = no clear call, values can overlap the other calls; inactive = mostly above about 0.92. This is one part of the list.
Your reply should match one of these outcome classes. active, inactive

Look over these answered cases.
compound | group
CCCCOc1ccc(C(=O)CCC(=O)O)cc1 | inactive
CN1C(=O)CN=C(c2ccccc2)c2ccccc21 | inactive
Cc1c(Cl)cccc1SCC(=O)O | inactive
N#Cc1cnn(-c2ccccc2)c1-n1cccc1 | inactive
Cc1nn(-c2ccccc2)nc1C(=O)NC(=O)N1CCCC1 | inactive
O=C(Nc1ccccc1C(=O)NC1CCCCNC1=O)c1cccs1 (configuration not stated) | inactive
CC(=O)/C(=C\Nc1ncccn1)S(=O)(=O)c1ccc(Cl)cc1 | inactive
CC(=O)OCc1ccc(/C=C(\C#N)S(=O)(=O)c2ccc(Cl)cc2)o1 | inactive

[ask] Hey, what did the test say about COc1ccc(S(=O)(=O)Nc2cc(C)c(C)cc2[N+](=O)[O-])c(OC)c1 ?
[reply] inactive

[ask] Hey, what did the test say about Cc1c(C(=O)O)cc(-c2ccccc2)n1-c1ccccc1 ?
[reply] active

[ask] Hey, what did the test say about CCOC(=O)COc1ccc2c(c1)OC(C)(C)CC2=O ?
[reply] inactive

[ask] Hey, what did the test say about NC1=C(c2ccccc2)C(=O)NC1=O ?
[reply] inactive

---

experiment: chemical genetic growth profiling, strain panel (AID 1159580); settings: S. cerevisiae deletion strains, growth OD, locus YML124C, strain tub3
The whole screen tested about 5,500 compounds, of which about 2,000 (36%) were called active. Another 18% or so got no clear call; they are omitted. Cut-off read from the data, not from the text of the source: active = normalized growth mostly below about 0.91 (no sharp cut-off); inconclusive = no clear call, values can overlap the other calls; inactive = mostly above about 0.92. The list shows a part of the results.
Your reply should match one of these outcome classes. class 1 for active, class 0 for inactive

Look over these answered cases.
compound | group
COC1C(O)C(O)C(O)[C@@H](O)C1O (stereo not given in full) | class 0
Cc1ccc(C(=O)C(C)CN2CCCCC2)cc1 (stereo not given) | class 0
CNC1(C)C2CCC(C2)C1(C)C (stereo not given) | class 0
C[CH2][Hg][S]c1ccccc1C(=O)O | class 1
CN1Cc2c(ccc3c2OCO3)C2C(O)Cc3cc4c(cc3C21)OCO4 (stereo not given) | class 0

Then this compound:
[ask] Hey, what did the test say about CCC(C(N)=O)c1ccccc1 (stereo not given) ?
[reply] class 0

---

assay: chemical genetic growth profiling, strain panel (AID 1159580);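 further: tested at 20 µM; growth read once vehicle control cultures reached saturation at 30 °C; 1 = growth at the plate median or of vehicle wells; lower values mean less growth of the strain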; conditions: S. cerevisiae deletion strains, growth OD, locus YBR231C, strain swc5, hits give low values
Screen size: about 5,500 compounds; about 2,000 (36%) were called active. Another 18% or so got no clear call; they are omitted. This is one part of the list.
Param label: returns rule met when normalized growth < 1, returns rule not met otherwise, including exact equality.

Look over these answered cases.
compound | group
CCN(CC)C(=S)SSC(=S)N(CC)CC | rule met
COc1ccc(C(=O)c2ccccc2O)c(O)c1 | rule met
COc1c2c(c(CC=C(C)C)c3oc(=O)c(-c4ccc(O)cc4)c(O)c13)OC(C)(C)C=C2 | rule met
OCCN(CCO)c1nc(N2CCCCC2)c2nc(N(CCO)CCO)nc(N3CCCCC3)c2n1 | rule met
CCCCCC(C)N (stereo not given) | rule not met

[ask] # TODO verify normalized growth < 1 strictly for this compound: COc1ccc(-c2coc3c(O)c(OC)ccc3c2=O)cc1
[reply] rule met

[ask] # TODO verify normalized growth < 1 strictly for this compound: COc1ccc(C2CC(=O)c3ccc(OC)cc3O2)cc1 (stereo not given)
[reply] rule met

[ask] # TODO verify normalized growth < 1 strictly for this compound: C[C@@H]1O[C@@H](O[C@H]2[C@@H](Oc3cc(O)c4c(c3)O[C@H](c3ccc(O)cc3)CC4=O)O[C@H](CO)[C@@H](O)[C@@H]2O)[C@H](O)[C@H](O)[C@H]1O
[reply] rule met

---

assay: chemical genetic growth profiling, strain panel (AID 1159580);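 further: tested at 20 µM; growth read once vehicle control cultures reached saturation at 30 °C; 1 = growth at the plate median or of vehicle wells; lower values mean less growth of the strain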; settings: S. cerevisiae deletion strains, growth OD, locus YDR388W, hits give low values
Screen size: about 5,500 compounds; about 2,000 (36%) were called active. Inconclusive results (about 18%) are left out. The list shows a part of the results.
reported-metric: normalized growth

[ask] Given N=c1nc(N2CCCCC2)cc(N)n1O , respond with its normalized growth.
[reply] 0.949 (inactive)

[ask] Given CC1(C)S[C@@H]2[C@H](NC(=O)[C@H](NC(=O)N3CCNC3=O)c3ccccc3)C(=O)N2C1C(=O)O (stereo not given in full) , respond with its normalized growth.
[reply] 0.987 (inactive)

[ask] Given COc1ccc2c(c1)[C@@]1(C)CCC(=O)C[C@H]1CC2 , respond with its normalized growth.
[reply] 0.978 (inactive)

[ask] Given OCCN(CCO)c1nc(N2CCCCC2)c2nc(N(CCO)CCO)nc(N3CCCCC3)c2n1 , respond with its normalized growth.
[reply] 0.998 (inactive)

[ask] Given CC[C@@H](CO)NCCN[C@@H](CC)CO , respond with its normalized growth.
[reply] 1 (inactive)

[ask] Given O[C@H]1C=C2CCN3Cc4cc5c(cc4C(C23)[C@@H]1O)OCO5 (stereo not given in full) , respond with its normalized growth.
[reply] 0.514 (active)

[ask] Given CN1CCc2cc3c(cc2C1O)OCO3 (stereo not given) , respond with its normalized growth.
[reply] 0.956 (inactive)

[ask] Given NC/C=C/C(=O)O , respond with its normalized growth.
[reply] 1.01 (inactive)

[ask] Given COc1ccc2c(c1)C1(C)CCC(=O)CC1CC2 (stereo not given) , respond with its normalized growth.
[reply] 0.989 (inactive)

[ask] Given COc1ccc(C[C@H]2NC[C@H](O)[C@H]2OC(C)=O)cc1 , respond with its normalized growth.
[reply] 0.161 (active)

[ask] Given CN1Cc2c(ccc3c2OCO3)C2C(O)Cc3cc4c(cc3C21)OCO4 (stereo not given) , respond with its normalized growth.
[reply] 0.987 (inactive)

[ask] Given CC(=C(CCOP(=O)(O)O)SC(=O)c1ccccc1)N(C=O)Cc1cnc(C)nc1N , respond with its normalized growth.
[reply] 1.01 (inactive)

[ask] Given COc1cccc2c1CCC1CC(=O)CCC21C (stereo not given) , respond with its normalized growth.
[reply] 0.948 (inactive)

[ask] Given COc1cc2c(cc1OC)C(=O)C(CC1CCN(Cc3ccccc3)CC1)C2 (stereo not given) , respond with its normalized growth.
[reply] 0.998 (inactive)

[ask] Given COc1ccc2cc1Oc1ccc(cc1)C[C@H]1c3cc(c(OC)cc3CCN1C)Oc1c(OC)c(OC)cc3c1[C@H](C2)N(C)CC3 , respond with its normalized growth.
[reply] 0.241 (active)

---

test: chemical genetic growth profiling, strain panel (AID 1159580);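 further: tested at 20 µM; growth read once vehicle control cultures reached saturation at 30 °C; 1 = growth at the plate median or of vehicle wells; lower values mean less growth of the strain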; conditions: S. cerevisiae deletion strains, growth OD, locus YER015W, strain faa2, hits give low values
About 2,000 (36%) of roughly 5,500 compounds were called active. Roughly 18% stayed inconclusive and do not appear here. Some of the results follow.
reported-metric: normalized growth
API doc: respond with a numeric literal and nothing else, no unit.

Example entries and their recorded answers appear below.
compound | normalized growth
COc1c(O)cc2oc3cc(O)c(CC=C(C)C)c(O)c3c(=O)c2c1CC=C(C)C | 0.901
C[N+](C)(C)CC(=O)[O-] | 0.993
CCOC(=O)c1ncn2c1CN(C)C(=O)c1cc(F)ccc1-2 | 1.01

[ask] Given CC(=O)O[C@H]1C(=O)[C@@]2(C)C([C@H](OC(=O)c3ccccc3)[C@]3(O)C[C@H](OC(=O)[C@H](O)[C@@H](NC(=O)c4ccccc4)c4ccccc4)C(C)=C1C3(C)C)[C@]1(OC(C)=O)CO[C@@H]1C[C@@H]2O (stereo not given in full) , respond with its normalized growth.
[reply] 0.997

[ask] Given CC(C)(N=NC(C)(C)C(=N)N)C(=N)N , respond with its normalized growth.
[reply] 1.03

[ask] Given O=[N+]([O-])O[C@H]1CO[C@H]2[C@@H]1OC[C@H]2O[N+](=O)[O-] , respond with its normalized growth.
[reply] 1.01

[ask] Given CC(=O)O[C@]1(C(C)=O)CCC2C3C=C(Cl)C4=CC(=O)CC[C@]4(C)C3CC[C@@]21C (stereo not given in full) , respond with its normalized growth.
[reply] 1.01

[ask] Given CCCCCC(=O)O[C@]1(C(C)=O)CCC2C3CCC4=CC(=O)CC[C@]4(C)C3CC[C@@]21C (stereo not given in full) , respond with its normalized growth.
[reply] 0.997

[ask] Given CC(=O)O[C@]1(C(C)=O)CCC2C3C=C(C)C4=CC(=O)CCC4(C)C3CCC21C (stereo not given in full) , respond with its normalized growth.
[reply] 0.971

[ask] Given CC(=O)O[C@]1(C(C)=O)CCC2C3C[C@H](C)C4=CC(=O)CC[C@]4(C)C3CC[C@@]21C (stereo not given in full) , respond with its normalized growth.
[reply] 0.969

[ask] Given C[C@@H]1O[C@@H](O[C@H]2[C@@H](Oc3cc(O)c4c(c3)O[C@H](c3ccc(O)cc3)CC4=O)O[C@H](CO)[C@@H](O)[C@@H]2O)[C@H](O)[C@H](O)[C@H]1O , respond with its normalized growth.
[reply] 0.959

[ask] Given O=C(O)C1CC([C@@H]2CCCCN2)CN2CCCCC12 (stereo not given in full) , respond with its normalized growth.
[reply] 0.997

[ask] Given CN=C(NC#N)NCCSCc1nc(N=C(N)N)cs1 , respond with its normalized growth.
[reply] 0.981

[ask] Given C[N+](C)(C)CCOP(=O)([O-])OP(=O)(O)OC[C@H]1OC(n2ccc(N)nc2=O)[C@H](O)[C@@H]1O (stereo not given in full) , respond with its normalized growth.
[reply] 1

[ask] Given C=C1CC[C@H](O)C/C1=C/C=C1\CCC[C@]2(C)C([C@H](C)/C=C/[C@H](C)C(C)C)CC[C@@H]12 (stereo not given in full) , respond with its normalized growth.
[reply] 1.01

[ask] Given C[CH2][Hg][S]c1ccccc1C(=O)O , respond with its normalized growth.
[reply] 0.0585

[ask] Given CC(C)=CCc1c(O)cc2oc(C)cc(=O)c2c1O , respond with its normalized growth.
[reply] 0.983

[ask] Given COc1ccc(C2CC(=O)c3ccc(OC)cc3O2)cc1 (stereo not given) , respond with its normalized growth.
[reply] 0.96

[ask] Given O=C(O)c1ccccc1OP(=O)(O)O , respond with its normalized growth.
[reply] 1.01

[ask] Given CCCCCCCCCCCCCCCCOP(=O)([O-])OCC[N+](C)(C)C , respond with its normalized growth.
[reply] 0.0638
